Values from ChEMBL document CHEMBL1641531

Some molecules, each annotated with its measured Ki.
# tested-system: Transient receptor potential cation channel subfamily V member 1 (Rattus norvegicus)
# Sequence (O35433 whole entry): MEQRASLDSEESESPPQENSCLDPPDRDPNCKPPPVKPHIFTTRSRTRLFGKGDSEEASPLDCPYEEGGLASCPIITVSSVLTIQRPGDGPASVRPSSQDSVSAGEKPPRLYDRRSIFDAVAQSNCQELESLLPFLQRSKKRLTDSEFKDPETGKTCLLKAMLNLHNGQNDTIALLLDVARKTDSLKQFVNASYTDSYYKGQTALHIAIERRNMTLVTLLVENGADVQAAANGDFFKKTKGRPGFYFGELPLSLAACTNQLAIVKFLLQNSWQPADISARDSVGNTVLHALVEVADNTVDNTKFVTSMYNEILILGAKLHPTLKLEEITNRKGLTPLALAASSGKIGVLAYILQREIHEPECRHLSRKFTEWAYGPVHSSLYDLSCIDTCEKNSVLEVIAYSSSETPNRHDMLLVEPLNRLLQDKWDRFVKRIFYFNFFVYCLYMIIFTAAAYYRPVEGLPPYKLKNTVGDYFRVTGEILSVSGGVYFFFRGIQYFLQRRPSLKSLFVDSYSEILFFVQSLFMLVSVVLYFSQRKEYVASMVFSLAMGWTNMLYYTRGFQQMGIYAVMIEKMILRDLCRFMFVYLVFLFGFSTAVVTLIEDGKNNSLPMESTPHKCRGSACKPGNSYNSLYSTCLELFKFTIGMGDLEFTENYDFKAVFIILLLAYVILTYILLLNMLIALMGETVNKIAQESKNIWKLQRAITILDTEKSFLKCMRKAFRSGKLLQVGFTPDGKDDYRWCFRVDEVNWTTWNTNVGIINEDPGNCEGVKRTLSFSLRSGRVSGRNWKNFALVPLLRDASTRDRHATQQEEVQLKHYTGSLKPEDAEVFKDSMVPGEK
# assay-remarks: Displacement of [3H]RTX from rat […] expressed in CHO cells by competitive binding assay
# Type: cell-based

{"molecule": "C=C(C)[C@@]12C[C@@H](C)C34OC(Cc5ccccc5)(OC1[C@@H]3C=C(COC(=O)Cc1cc(Br)cc(Br)c1)C[C@]1(O)C(=O)C(C)=C[C@@H]41)O2 (stereo not given in full)", "tested-system": "Transient receptor potential cation channel subfamily V member 1 (Rattus norvegicus)", "Ki (nM)": 110}
{"molecule": "C=C(C)[C@@]12C[C@@H](C)C34OC(Cc5ccccc5)(OC1[C@@H]3C=C(COC(=O)Cc1cc(Br)c(N)c(OC)c1)C[C@]1(O)C(=O)C(C)=C[C@@H]41)O2 (stereo not given in full)", "tested-system": "Transient receptor potential cation channel subfamily V member 1 (Rattus norvegicus)", "Ki (nM)": 1.99}
{"molecule": "C=C(C)[C@@]12C[C@@H](C)C34OC(Cc5ccccc5)(OC1[C@@H]3C=C(COC(=O)Cc1cc(F)c(O)c(OC)c1)C[C@]1(O)C(=O)C(C)=C[C@@H]41)O2 (stereo not given in full)", "tested-system": "Transient receptor potential cation channel subfamily V member 1 (Rattus norvegicus)", "Ki (nM)": 0.26}
{"molecule": "C=C(C)[C@@]12C[C@@H](C)C34OC(Cc5ccccc5)(OC1[C@@H]3C=C(COC(=O)Cc1cc(I)c(O)c(OC)c1)C[C@]1(O)C(=O)C(C)=C[C@@H]41)O2 (stereo not given in full)", "tested-system": "Transient receptor potential cation channel subfamily V member 1 (Rattus norvegicus)", "Ki (nM)": 0.61}
{"molecule": "C=C(C)[C@@]12C[C@@H](C)C34OC(Cc5ccccc5)(OC1[C@@H]3C=C(COC(=O)Cc1cc(Cl)c(N)c(OC)c1)C[C@]1(O)C(=O)C(C)=C[C@@H]41)O2 (stereo not given in full)", "tested-system": "Transient receptor potential cation channel subfamily V member 1 (Rattus norvegicus)", "Ki (nM)": 0.85}

* * *

# tested-system: Transient receptor potential cation channel subfamily V member 1 (Rattus norvegicus)
# assay-remarks: Displacement of [3H]RTX from rat […] expressed in CHO cells by competitive binding assay
# Assay type: cell-based

{"molecule": "C=C(C)[C@@]12C[C@@H](C)C34OC(Cc5ccccc5)(OC1[C@@H]3C=C(COC(=O)Cc1ccc(N)c(OC)c1)C[C@]1(O)C(=O)C(C)=C[C@@H]41)O2 (stereo not given in full)", "tested-system": "Transient receptor potential cation channel subfamily V member 1 (Rattus norvegicus)", "Ki": "0.13 nM"}
{"molecule": "C=C(C)[C@@]12C[C@@H](C)C34OC(Cc5ccccc5)(OC1[C@@H]3C=C(COC(=O)Cc1cc(Cl)c(O)c(OC)c1)C[C@]1(O)C(=O)C(C)=C[C@@H]41)O2 (stereo not given in full)", "tested-system": "Transient receptor potential cation channel subfamily V member 1 (Rattus norvegicus)", "Ki": "1.03 nM"}
{"molecule": "C=C(C)[C@@]12C[C@@H](C)C34OC(Cc5ccccc5)(OC1[C@@H]3C=C(COC(=O)Cc1cc(Br)c(OC(C)=O)c(OC)c1)C[C@]1(O)C(=O)C(C)=C[C@@H]41)O2 (stereo not given in full)", "tested-system": "Transient receptor potential cation channel subfamily V member 1 (Rattus norvegicus)", "Ki": "0.3 nM"}
{"molecule": "C=C(C)[C@@]12C[C@@H](C)C34OC(Cc5ccccc5)(OC1[C@@H]3C=C(COC(=O)Cc1cc(F)c(N)c(OC)c1)C[C@]1(O)C(=O)C(C)=C[C@@H]41)O2 (stereo not given in full)", "tested-system": "Transient receptor potential cation channel subfamily V member 1 (Rattus norvegicus)", "Ki": "0.7 nM"}
{"molecule": "C=C(C)[C@@]12C[C@@H](C)C34OC(Cc5ccccc5)(OC1[C@@H]3C=C(COC(=O)Cc1cc(Br)c(O)c(OC)c1)C[C@]1(O)C(=O)C(C)=C[C@@H]41)O2 (stereo not given in full)", "tested-system": "Transient receptor potential cation channel subfamily V member 1 (Rattus norvegicus)", "Ki": "0.17 nM"}
